# credit: patent US20060264460A1

# Test target: human Cot/Tpl2 kinase (Homo sapiens)
# Construct: human Cot/Tpl2 kinase construct encoding residues 30-398; 6His (N); made in house; host or cells: Sf9 insect cells, baculovirus system (BD Biosciences)
# Sequence (P41279 30-398): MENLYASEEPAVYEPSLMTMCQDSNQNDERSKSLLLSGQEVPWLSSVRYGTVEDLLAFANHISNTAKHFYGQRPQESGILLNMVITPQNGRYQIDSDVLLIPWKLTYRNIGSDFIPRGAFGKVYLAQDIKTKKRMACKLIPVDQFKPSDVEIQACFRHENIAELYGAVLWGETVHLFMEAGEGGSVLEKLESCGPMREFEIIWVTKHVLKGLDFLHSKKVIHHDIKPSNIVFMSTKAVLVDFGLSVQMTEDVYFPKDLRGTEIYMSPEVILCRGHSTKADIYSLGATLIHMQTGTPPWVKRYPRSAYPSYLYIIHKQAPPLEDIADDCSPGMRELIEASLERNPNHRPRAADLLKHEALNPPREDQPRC
# Experiment: Tpl2/Cot kinase assay: GST-MEK1 phosphorylation detected by ELISA (DELFIA Eu)
# Format: biochemical
# Conditions: Tpl2/Cot kinase, GST-MEK1 substrate, 50 uM ATP
pIC50: −log10 of the molar value.
Cut-off 8 on pIC50, inclusive. At or above means Yes; below means No.

Prompt line: Reported pIC50 reaches at least 8 for "CC(=O)Nc1ccc(-n2cc(CNc3cc(Cl)c4ncc(C#N)c(Nc5ccc(F)c(Cl)c5)c4c3)nn2)cc1" ?
Response line: No

Prompt line: Please tell me: is the compound "N#Cc1cnc2c(Br)cc(NCc3cnc4cnccn34)cc2c1Nc1ccc(F)c(Cl)c1" at or over 8 in terms of pIC50?
Response line: No

Prompt line: Given "N#Cc1cnc2c(Br)cc(NCc3cc([C@@H]4CCCN4)n[nH]3)cc2c1Nc1ccc(F)c(Cl)c1" , state whether its pIC50 is at least 8.
Response line: No

Prompt line: Could you verify whether the entry "N#Cc1cnc2c(Br)cc(NCc3cn(CCCN4CCCCC4)nn3)cc2c1Nc1ccc(F)c(Cl)c1" shows pIC50 of no less than 8?
Response line: Yes

Prompt line: Given the entry "N#Cc1cnc2c(Cl)cc(NCCNS(=O)(=O)c3ccccn3)cc2c1Nc1ccc(F)c(Cl)c1" , answer whether its pIC50 meets or surpasses 8.
Response line: No

Below: the item to evaluate.
Prompt line: Does the reported pIC50 for "N#Cc1cnc2c(Br)cc(NCc3cn(CCO)nn3)cc2c1Nc1ccc(F)c(Cl)c1" fall at or above the 8 mark?
Response line: No
